- Tested on: TC-71 Ewing sarcoma cells (EWS-FLI1 Type 1)
- CONDITION_SUMMARY: 72 h growth inhibition
QUANTITY: TC-71 EWS-FLI1 Type 1 GI50 (nM)

COMPOUND: COC(=O)C(Cc1c[nH]c2cc(F)ccc12)NC(=O)C(OC)C1Cc2cc3cc(OC4CC(OC5CC(O)C(O)C(C)O5)C(O)C(C)O4)c(C)c(O)c3c(O)c2C(=O)C1OC1CC(OC2CC(OC3CC(C)(O)C(O)C(C)O3)C(O)C(C)O2)C(O)C(C)O1 (centres unmarked)
STUDY_SYSTEM: TC-71 Ewing sarcoma cells (EWS-FLI1 Type 1)
QUANTITY: TC-71 EWS-FLI1 Type 1 GI50
MEASURED_NUMBER: 640
//
COMPOUND: COC(=O)C(Cc1cn(C)c2ccccc12)NC(=O)C(OC)C1Cc2cc3cc(OC4CC(OC5CC(O)C(O)C(C)O5)C(O)C(C)O4)c(C)c(O)c3c(O)c2C(=O)C1OC1CC(OC2CC(OC3CC(C)(O)C(O)C(C)O3)C(O)C(C)O2)C(O)C(C)O1 (centres unmarked)
STUDY_SYSTEM: TC-71 Ewing sarcoma cells (EWS-FLI1 Type 1)
QUANTITY: TC-71 EWS-FLI1 Type 1 GI50
MEASURED_NUMBER: 696
//
COMPOUND: C=CCOc1ccc2[nH]cc(CC(NC(=O)C(OC)C3Cc4cc5cc(OC6CC(OC7CC(O)C(O)C(C)O7)C(O)C(C)O6)c(C)c(O)c5c(O)c4C(=O)C3OC3CC(OC4CC(OC5CC(C)(O)C(O)C(C)O5)C(O)C(C)O4)C(O)C(C)O3)C(=O)OC)c2c1 (centres unmarked)
STUDY_SYSTEM: TC-71 Ewing sarcoma cells (EWS-FLI1 Type 1)
QUANTITY: TC-71 EWS-FLI1 Type 1 GI50
MEASURED_NUMBER: 636
//
COMPOUND: COC(=O)C(Cc1ccccc1)NC(=O)C(Cc1ccccc1)NC(=O)C(OC)C1Cc2cc3cc(OC4CC(OC5CC(O)C(O)C(C)O5)C(O)C(C)O4)c(C)c(O)c3c(O)c2C(=O)C1OC1CC(OC2CC(OC3CC(C)(O)C(O)C(C)O3)C(O)C(C)O2)C(O)C(C)O1 (centres unmarked)
STUDY_SYSTEM: TC-71 Ewing sarcoma cells (EWS-FLI1 Type 1)
QUANTITY: TC-71 EWS-FLI1 Type 1 GI50
MEASURED_NUMBER: 211
//
COMPOUND: COC(=O)C(Cc1ccccc1)NC(=O)C(Cc1c[nH]c2ccccc12)NC(=O)C(OC)C1Cc2cc3cc(OC4CC(OC5CC(O)C(O)C(C)O5)C(O)C(C)O4)c(C)c(O)c3c(O)c2C(=O)C1OC1CC(OC2CC(OC3CC(C)(O)C(O)C(C)O3)C(O)C(C)O2)C(O)C(C)O1 (centres unmarked)
STUDY_SYSTEM: TC-71 Ewing sarcoma cells (EWS-FLI1 Type 1)
QUANTITY: TC-71 EWS-FLI1 Type 1 GI50
MEASURED_NUMBER: 19

###

- Tested on: Ewing sarcoma cell lines (TC-32, 5838, RD-ES, TC-71, A-673, ES-2, ES-7, ES-8)
- PROTOCOL_DESCRIPTION: Median GI50 in panel of Ewing sarcoma cell lines
- CONDITION_SUMMARY: read-out: Median GI50 in Ewing sarcoma cell lines; median over 8 Ewing sarcoma cell lines, 72 h

COMPOUND: COC(=O)C(Cc1c[nH]c2ccccc12)NC(=O)C(Cc1ccccc1)NC(=O)C(OC)C1Cc2cc3cc(OC4CC(OC5CC(O)C(O)C(C)O5)C(O)C(C)O4)c(C)c(O)c3c(O)c2C(=O)C1OC1CC(OC2CC(OC3CC(C)(O)C(O)C(C)O3)C(O)C(C)O2)C(O)C(C)O1 (stereo not shown)
STUDY_SYSTEM: Ewing sarcoma cell lines (TC-32, 5838, RD-ES, TC-71, A-673, ES-2, ES-7, ES-8)
GI50: 52 nM
